Listing of recorded kon by entry.
# assayed system: T1, MUC1-ECD (human, UniProt P15941 1098-1155)
# T1 construct: also called Ag MUC1-ECD; Antigen MUC1-ECD
# T1 sequence: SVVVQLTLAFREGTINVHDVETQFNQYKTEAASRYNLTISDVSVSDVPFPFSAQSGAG
# test method notes: SPR Biacore T200, antibody on chip, MUC1-ECD analyte, 1:1 fit

- binder: "VH1 + VL3 (antibody, V domains shown) VH: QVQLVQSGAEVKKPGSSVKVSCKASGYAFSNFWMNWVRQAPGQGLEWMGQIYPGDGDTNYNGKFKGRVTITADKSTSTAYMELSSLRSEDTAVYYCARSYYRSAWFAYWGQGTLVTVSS VL: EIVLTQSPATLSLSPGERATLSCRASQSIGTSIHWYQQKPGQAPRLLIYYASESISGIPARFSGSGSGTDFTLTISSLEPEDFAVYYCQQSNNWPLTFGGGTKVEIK"
  kon (M⁻¹ s⁻¹): 425000
- binder: "VH2 + VL3 (antibody, V domains shown) VH: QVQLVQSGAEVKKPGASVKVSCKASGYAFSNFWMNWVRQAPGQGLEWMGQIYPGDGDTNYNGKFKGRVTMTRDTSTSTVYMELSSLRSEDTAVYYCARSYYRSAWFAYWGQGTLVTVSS VL: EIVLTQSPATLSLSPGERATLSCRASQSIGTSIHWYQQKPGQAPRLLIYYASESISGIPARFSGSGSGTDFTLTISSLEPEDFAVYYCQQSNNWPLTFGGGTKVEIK"
  kon (M⁻¹ s⁻¹): 404000
- binder: "VH5 + VL3 (antibody, human IgG1, kappa, V domains shown, Full-length humanized IgG expressed in HEK293 and purified on protein A. Constant regions not specified; also called #23 (inferred from 5x5 numbering)) VH: EVQLVQSGAEVKKPGESLKISCKGSGFTFNYFWIEWVRQMPGKGLEWMGEILPGTGSTNYNEKFKGQVTISADKSISTAYLQWSSLKASDTAMYYCARYDYTSSMDYWGQGTLVTVSS VL: EIVLTQSPATLSLSPGERATLSCRASESVQYSGTSLMHWYQQKPGQAPRLLIYGASNVETGIPARFSGSGSGTDFTLTISSLEPEDFAVYYCQQNWKVPWTFGQGTKVEIKR"
  kon (M⁻¹ s⁻¹): 545000
- binder: "VH1 + VL4 (antibody, V domains shown) VH: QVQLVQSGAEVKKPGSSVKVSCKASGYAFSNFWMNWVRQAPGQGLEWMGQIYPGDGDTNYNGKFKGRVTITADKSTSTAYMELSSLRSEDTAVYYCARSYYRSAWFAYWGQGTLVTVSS VL: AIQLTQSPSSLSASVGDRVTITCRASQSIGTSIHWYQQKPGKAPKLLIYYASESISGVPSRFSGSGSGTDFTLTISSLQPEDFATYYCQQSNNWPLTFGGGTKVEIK"
  kon (M⁻¹ s⁻¹): 442000
- binder: "VH5 + VL2 (antibody, V domains shown) VH: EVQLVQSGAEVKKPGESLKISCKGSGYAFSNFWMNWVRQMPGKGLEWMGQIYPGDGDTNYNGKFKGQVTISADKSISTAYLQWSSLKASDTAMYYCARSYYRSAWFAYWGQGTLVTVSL VL: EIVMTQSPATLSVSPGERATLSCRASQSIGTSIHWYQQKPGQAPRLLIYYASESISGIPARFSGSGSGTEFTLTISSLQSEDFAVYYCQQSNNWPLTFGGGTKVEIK"
  kon (M⁻¹ s⁻¹): 455000
